Ref: the supplement of paper PMC10567573

B1: FADS1 (parent)
chain: LNFQIEHHLFPTMPRHNYHKVAPL

# Variants of: B1
# assay.details: protein stability index of a GFP-peptide fusion (GPS, HEK-293T) (PSI 1-6); higher = more stable;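 also: lentivirally expressed fusions sorted by FACS into six bins by GFP to DsRed ratio, PSI derived from sequencing read proportions per bin multiplied by bin number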
# condition.summary: c terminus: a fixed tail appended
Recorded protein stability index for the following variants
Format: numeric value only, no unit, no commentary.

The examples below pair each entry with its known result.
- LNFQIEHHLFPTMPRHNYQKVAPL: 2
- LNRQIEHHLFPTMPRHNYHKVAPL: 1.96
- LNFQIEHHLFPTMPRHNYHKVRPL: 1.99
- LNFQIEHHLFPTAPRHNYHKVAPL: 2.02

API: the following record is the query input.
Notebook: LNVQIEHHLFPTMPRHNYHKVAPL , protein stability index read as 1.96
